- TARGET_UNDER_TEST: T1, scleraxis (Scx) (UniProt Q6P6L3 1-207)
- T1 sequence: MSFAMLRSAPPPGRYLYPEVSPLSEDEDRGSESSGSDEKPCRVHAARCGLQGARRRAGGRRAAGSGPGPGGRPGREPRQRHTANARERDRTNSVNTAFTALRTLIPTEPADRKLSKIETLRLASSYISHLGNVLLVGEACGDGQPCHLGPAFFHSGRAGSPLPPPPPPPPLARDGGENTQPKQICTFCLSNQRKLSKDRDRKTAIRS
- ASSAY_OVERVIEW: EMSA; LightShift Chemiluminescent EMSA Kit (Pierce) per manufacturer, as in ref. 18; 500x cold competition; buffer, salt, pH and temperature not given
- CONDITION_DETAILS: chain copies: 2; label: biotin; blunt
QUANTITY_KIND: binding result

INSERT INTO measurements (binder, quantity_kind, result) VALUES
  ('E box 1 mutant (mE1) (dsDNA) DNA 1: GTCTGGGCATTTGAGCCGATGTTCTGAGGGCTCAGG DNA 2: CCTGAGCCCTCAGAACATCGGCTCAAATGCCCAGAC', 'binding result', 'no binding'),
  ('E box 2 mutant (mE2) (dsDNA) DNA 1: GTTTATCCCCATAAGCTGGTGAACTGCCTCCTGTTT DNA 2: AAACAGGAGGCAGTTCACCAGCTTATGGGGATAAAC', 'binding result', 'no binding'),
  ('E box 1 (E1), αSMA promoter (dsDNA) DNA 1: GTCTGGGCATTTGAGCAGTTGTTCTGAGGGCTCAGG DNA 2: CCTGAGCCCTCAGAACAACTGCTCAAATGCCCAGAC', 'binding result', 'binds'),
  ('E box 2 (E2), αSMA promoter (dsDNA) DNA 1: GTTTATCCCCATAAGCAGCTGAACTGCCTCCTGTTT DNA 2: AAACAGGAGGCAGTTCAGCTGCTTATGGGGATAAAC', 'binding result', 'binds');
